System: Sensitized Guinea Pigs
assay_method_text: Slow-Onset (nonhistamine) Bronchospasm Induced by Antigen Challenge in Sensitized Guinea Pigs (SRSPIG)
Format: in vivo, guinea pig
Design: concentration or dose not given beside the values
conditions_used: mepyramine pretreated, five minutes after ovalbumin
property: SRS-PIG, percent inhibition (CDYN) (%)

In [3]: df
Out[3]:
                                        smi  assay_value
0  O=C(O)c1ccccc1-c1ccccc1C(=O)Nc1ccc(CCCc2ccccc2)cc1           33
1  O=C(O)c1ccccc1-c1ccccc1C(=O)Nc1ccc(CCCc2ccc(Cl)c(Cl)c2)cc1           51
2  O=C(O)c1ccccc1-c1ccccc1C(=O)Nc1ccc(OCCCc2ccccc2)cc1           64
3  O=C(O)c1ccccc1-c1ccccc1C(=O)Nc1ccc(CCc2ccc(Cl)c(Cl)c2)cc1           16
4  O=C(O)c1ccccc1-c1ccccc1C(=O)Nc1cccc(CCc2ccc(Cl)c(Cl)c2)c1            3
5  O=C(O)c1ccccc1-c1ccccc1C(=O)Nc1ccc(CCCCCc2ccccc2)cc1           21

====

system_under_test: 5-lipoxygenase (Homo sapiens)
Construct: endogenous in cells
Sequence (P09917 1-674): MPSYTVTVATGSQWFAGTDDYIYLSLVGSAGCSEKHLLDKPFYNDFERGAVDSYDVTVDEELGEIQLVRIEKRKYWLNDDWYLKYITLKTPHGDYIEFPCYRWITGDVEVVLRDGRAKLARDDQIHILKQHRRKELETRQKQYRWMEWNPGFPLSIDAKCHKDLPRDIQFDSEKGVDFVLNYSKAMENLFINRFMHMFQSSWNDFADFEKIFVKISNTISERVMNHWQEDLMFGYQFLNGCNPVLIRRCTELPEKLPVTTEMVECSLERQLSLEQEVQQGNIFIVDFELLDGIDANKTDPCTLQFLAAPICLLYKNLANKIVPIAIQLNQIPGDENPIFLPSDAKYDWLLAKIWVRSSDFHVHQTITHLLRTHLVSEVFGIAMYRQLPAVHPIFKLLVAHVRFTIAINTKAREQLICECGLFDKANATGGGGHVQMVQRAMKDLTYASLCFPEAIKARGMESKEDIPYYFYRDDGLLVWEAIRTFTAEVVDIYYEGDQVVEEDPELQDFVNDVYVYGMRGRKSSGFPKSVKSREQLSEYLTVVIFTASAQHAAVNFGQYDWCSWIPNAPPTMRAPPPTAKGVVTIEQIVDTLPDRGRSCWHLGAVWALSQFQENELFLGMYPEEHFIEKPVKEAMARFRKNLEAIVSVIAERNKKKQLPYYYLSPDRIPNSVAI
assay_method_text: 5-Lipoxygenase Assay Using Isolated Human Leukocytes (5LOA2)
conditions_used: 20 μM exogenous arachidonic acid; read-out: IC50 5LOA (20)*
pIC50: −log10 of the molar value.
# pIC50 per entry
property: pIC50

>>> print(df.to_string())
                                        smi  property  relational_operator  assay_value
0  O=C(O)c1ccccc1-c1ccccc1C(=O)Nc1ccc(CCCc2ccccc2)cc1     pIC50                    =         4.66
1  O=C(O)c1ccccc1-c1ccccc1C(=O)Nc1ccc(CCCc2ccc(Cl)c(Cl)c2)cc1     pIC50                    =         5.17
2  O=C(O)c1ccccc1-c1ccccc1C(=O)Nc1ccc(CCCCc2ccccc2)cc1     pIC50                    =         5.14
3  O=C(O)c1ccccc1-c1ccccc1C(=O)Nc1ccc(CCCCc2ccc(Cl)c(Cl)c2)cc1     pIC50                    =         5.34
4  O=C(O)c1ccccc1-c1ccccc1C(=O)Nc1ccc(Cc2ccc(Cl)c(Cl)c2)cc1     pIC50                    =         4.72
5  COc1ccc(CCc2ccc(NC(=O)c3ccccc3-c3ccccc3C(=O)O)cc2)cc1OC     pIC50                    <         4.70

====

Measured pIC50 of individual entries
system_under_test: leukotriene receptor (Cavia porcellus, UniProt Q2NNR5)
Construct: 20 mg original tissue wet weight of guinea pig lung membranes; tissue Kuiper Rabbit Farm, Gary, IN (animals); host or cells: guinea pig lung, crude membranes
Sequence (Q2NNR5 whole entry): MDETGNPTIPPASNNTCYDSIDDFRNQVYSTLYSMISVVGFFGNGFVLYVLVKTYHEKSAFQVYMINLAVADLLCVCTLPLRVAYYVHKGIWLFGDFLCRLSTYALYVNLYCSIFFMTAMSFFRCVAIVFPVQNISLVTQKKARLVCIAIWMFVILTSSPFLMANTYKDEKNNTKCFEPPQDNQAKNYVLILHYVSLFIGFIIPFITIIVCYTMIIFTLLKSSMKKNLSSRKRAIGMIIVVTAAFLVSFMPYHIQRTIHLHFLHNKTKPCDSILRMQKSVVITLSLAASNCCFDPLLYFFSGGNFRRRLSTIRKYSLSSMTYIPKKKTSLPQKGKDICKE
assay_method_text: Binding of ^3 H-Leukotriene D4 to Guinea Pig Lung Membranes (RBL)
conditions_used: ^3 H-LTD4, guinea pig lung membranes; read-out: IC50 RBL1
pIC50: −log10 of the molar value.
property: pIC50

                                         smi  property  assay_value
 0  O=C(O)c1ccccc1-c1ccccc1C(=O)Nc1ccc(CCc2ccc(C(F)(F)F)cc2)cc1     pIC50         5.01
 1  O=C(O)c1ccccc1-c1ccccc1C(=O)Nc1cccc(CCCc2ccc(Cl)c(Cl)c2)c1     pIC50         6.00
 2  COc1ccc(CCc2ccc(NC(=O)c3ccccc3-c3ccccc3C(=O)O)cc2)cc1OC     pIC50         4.05
 3  O=C(CCc1ccc(Cl)cc1)c1ccc(NC(=O)c2ccccc2-c2ccccc2C(=O)O)cc1     pIC50         5.12
 4  O=C(O)c1ccccc1-c1ccccc1C(=O)Nc1cccc(Cc2ccc(Cl)c(Cl)c2)c1     pIC50         4.98
 5  O=C(O)c1ccccc1-c1ccccc1C(=O)Nc1ccc(OCCCc2ccccc2)cc1     pIC50         5.34
 6  O=C(O)c1ccccc1-c1ccccc1C(=O)Nc1ccc(CCCCCc2ccc(Cl)c(Cl)c2)cc1     pIC50         5.14
 7  CN(C)c1ccc(CCC(=O)c2ccc(NC(=O)c3ccccc3-c3ccccc3C(=O)O)cc2)cc1     pIC50         4.27
 8  O=C(O)c1ccccc1-c1ccccc1C(=O)Nc1ccc(CCCc2ccc(Cl)c(Cl)c2)cc1     pIC50         6.00
 9  O=C(O)c1ccccc1-c1ccccc1C(=O)Nc1ccc(CCCc2ccc(Oc3ccccc3)cc2)cc1     pIC50         4.88
10  O=C(O)c1ccccc1-c1ccccc1C(=O)Nc1ccc(CCCCc2ccccc2)cc1     pIC50         5.17
11  CC(C)(C)c1cc(CCc2ccc(NC(=O)c3ccccc3-c3ccccc3C(=O)O)cc2)cc(C(C)(C)C)c1O     pIC50         5.43
12  O=C(O)c1ccccc1-c1ccccc1C(=O)Nc1cccc(CCCCc2ccc(Cl)c(Cl)c2)c1     pIC50         6.15
13  O=C(CCCCc1ccc(Cl)c(Cl)c1)c1ccc(NC(=O)c2ccccc2-c2ccccc2C(=O)O)cc1     pIC50         5.42
14  O=C(C=Cc1ccc(Br)cc1)c1ccc(NC(=O)c2ccccc2-c2ccccc2C(=O)O)cc1     pIC50         4.57

====

Tested on: Isolated Guinea Pig Lung Parenchyma
assay_method_text: Smooth Muscle Receptor Agonism-Antagonism Activity Evaluations In Vitro (IVAS), LTC4-induced contraction
Assay type: cell-based
conditions_used: Cavia porcellus; LTC4-induced contraction
pIC50: −log10 of the molar value.
property: pIC50

>>> print(df.to_string())
                                        smi  property  assay_value
0  O=C(O)c1ccccc1-c1ccccc1C(=O)Nc1ccc(CCc2ccc(Cl)c(Cl)c2)cc1     pIC50         6.00

====

system_under_test: human leukocyte 5-lipoxygenase (Homo sapiens, UniProt P09917)
Construct: endogenous in cells
Sequence (P09917 1-674): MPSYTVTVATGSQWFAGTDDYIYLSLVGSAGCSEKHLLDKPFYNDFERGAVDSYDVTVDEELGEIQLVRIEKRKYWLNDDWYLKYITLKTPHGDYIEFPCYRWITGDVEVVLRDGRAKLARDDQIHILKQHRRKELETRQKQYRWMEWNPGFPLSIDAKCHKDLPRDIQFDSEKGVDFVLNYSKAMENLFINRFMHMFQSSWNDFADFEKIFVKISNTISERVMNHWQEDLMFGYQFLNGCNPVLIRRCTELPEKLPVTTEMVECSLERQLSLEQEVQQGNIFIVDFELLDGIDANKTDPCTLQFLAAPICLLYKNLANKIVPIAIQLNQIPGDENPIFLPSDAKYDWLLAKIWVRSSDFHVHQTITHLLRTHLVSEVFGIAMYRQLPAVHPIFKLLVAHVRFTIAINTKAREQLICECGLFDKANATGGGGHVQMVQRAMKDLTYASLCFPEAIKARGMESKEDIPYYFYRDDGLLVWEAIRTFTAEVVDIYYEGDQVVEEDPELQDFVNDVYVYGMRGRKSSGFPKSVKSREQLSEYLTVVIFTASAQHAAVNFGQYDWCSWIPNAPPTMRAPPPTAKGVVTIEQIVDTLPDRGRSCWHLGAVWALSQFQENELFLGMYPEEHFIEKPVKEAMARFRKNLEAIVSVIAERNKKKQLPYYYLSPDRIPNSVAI
assay_method_text: 5-Lipoxygenase Inhibitor in Human Leukocytes (5LOA1)
conditions_used: 100 μM exogenous arachidonic acid; read-out: IC50 5LOA (100)*
property: IC50 (µM)

>>> print(df.to_string())
                                        smi                         system_under_test  property  scale_unit  relational_operator  assay_value
0  O=C(O)c1ccccc1-c1ccccc1C(=O)Nc1cccc(CCc2ccc(Cl)c(Cl)c2)c1  human leukocyte 5-lipoxygenase (Homo sapiens, UniProt P09917)      IC50          µM                    =          9.3
1  O=C(O)c1ccccc1-c1ccccc1C(=O)Nc1ccc(CCc2ccc(Cl)c(Cl)c2)cc1  human leukocyte 5-lipoxygenase (Homo sapiens, UniProt P09917)      IC50          µM                    =          4.6
2  CN(C(=O)c1ccccc1-c1ccccc1C(=O)O)c1ccc(CCc2ccc(Cl)cc2)cc1  human leukocyte 5-lipoxygenase (Homo sapiens, UniProt P09917)      IC50          µM                    >           20
